- ASSAY NAME: Half-life of compound in plasma of CD-1 mice upon o.s. dose
- Format: ADME, cell-free
- SETUP CONDITIONS: CD-1, mouse, po
RECORDED METRIC: half-life (h)
Response body: numeric value in h, unit text excluded.

Query string: What does the record list as half-life for `C[C@H](C(=O)Nc1cc(C2CC2)[nH]n1)c1ccc(N2CCOC2=O)cc1` ?
Result string: 3.1

====

- TARGET DESC: Cyclin-dependent kinase 4/cyclin D1 (Homo sapiens, UniProt P11802)
- Sequence (P11802 whole entry): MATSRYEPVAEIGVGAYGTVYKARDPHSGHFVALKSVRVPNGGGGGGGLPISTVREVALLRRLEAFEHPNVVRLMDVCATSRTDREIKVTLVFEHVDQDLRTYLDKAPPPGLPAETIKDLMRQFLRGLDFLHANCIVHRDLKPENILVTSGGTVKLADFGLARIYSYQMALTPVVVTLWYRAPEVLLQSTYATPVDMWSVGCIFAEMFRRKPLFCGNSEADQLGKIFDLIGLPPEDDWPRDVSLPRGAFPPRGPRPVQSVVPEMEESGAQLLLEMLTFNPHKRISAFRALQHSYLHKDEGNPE
- Sequence (P24385 whole entry, further chain): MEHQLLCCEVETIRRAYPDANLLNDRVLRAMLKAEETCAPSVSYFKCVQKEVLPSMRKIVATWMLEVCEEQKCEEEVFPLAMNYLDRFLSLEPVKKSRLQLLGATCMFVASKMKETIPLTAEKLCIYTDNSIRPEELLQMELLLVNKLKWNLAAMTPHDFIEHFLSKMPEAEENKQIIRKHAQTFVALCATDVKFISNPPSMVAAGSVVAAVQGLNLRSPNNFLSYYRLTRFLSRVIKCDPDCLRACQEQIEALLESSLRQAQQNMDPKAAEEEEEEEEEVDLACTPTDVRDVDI
- ASSAY NAME: Inhibition of cyclin-dependent kinase 4-cyclin D1 (n=2)
- Type: protein-complex assay
RECORDED METRIC: IC50

Query string: Reported IC50 for `C[C@H](C(=O)Nc1cc(C2CC2)[nH]n1)c1ccc(N2CCOC2=O)cc1` : what is it?
Result string: > 10 µM
